Assignment: determine reported kon for the given binders.
# target_system: T1, biotinylated recombinant his-tagged MrkA, mixture of monomeric and oligomeric MrkA (Klebsiella pneumoniae, UniProt P12267 23-202, biotin-labeled (Pierce kit; sites not stated))
# T1 construct: also called biotinylated-MrkA; a mixture of monomeric and multimeric MrkA; not shown: his tag
# T1 chain: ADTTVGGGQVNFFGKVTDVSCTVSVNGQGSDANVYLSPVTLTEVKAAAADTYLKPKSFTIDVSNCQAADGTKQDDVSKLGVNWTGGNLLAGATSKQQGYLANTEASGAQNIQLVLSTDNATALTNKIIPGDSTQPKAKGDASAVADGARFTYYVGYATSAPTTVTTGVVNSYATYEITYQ
# method_description: BLI (Octet), biotinylated MrkA on streptavidin sensors, IgG in solution, 1:1 fit
Give the figure together with its unit, number first.

Lookup: Query: kon; subject: anti-MrkA clone 4 (IgG1) (antibody, V domains shown, also called St2_C4; IgG clone 4) VH: QLQLQESGPGLVKPSGTLSLTCAVSGDSIDNANWWSWVRQTPGKGLEWIGEIYHSGTTYYNPSLKSRVTISIDNSKNQFSLALTSVTAADTAVYYCARDRDITSRGTFDVWGRGTMVTVSS VL: DIQMTQSPSTLSASIGDRVTITCRASEGIYHWLAWYQQKPGKAPKLLIYKASSLASGAPSRFSGSGSGTDFTLTISSLQPDDFATYYCQQYSNYPLTFGGGTKLEIK
Found: 40600 M⁻¹ s⁻¹

Lookup: And then anti-MrkA clone 1 (IgG1) (antibody, V domains shown, also called St1_C1; IgG clone 1) VH: QVQLVQSGAEVRKPGASVTVFCRTSGYIFTSYAVHWVRQAPGQGLEWMGGINGGNGNTRISQRFQDRLMITRDRSANTASMELRSLTSEDTAIYYCARADDCSGVGCHPWFDPWGRGTLVTVSS VL: QSVLTQPPSVSVSPGHTASITCSGDKLGDKYVSWYQQKSGQSPVLVMYKDTKRPSGIPERFSGSNSGNTATLAISGTQAVDEADYFCQAWDRSIMIFGGGTKVTVL , what is it?
Found: 53000 M⁻¹ s⁻¹

Lookup: And then anti-MrkA clone 6 (IgG1) (antibody, V domains shown, also called St4_C6; IgG clone 6) VH: QVQLVQSGAEVRKPGASVTLSCRTSGYTFTSYAVHWVRQAPGQGLEWMGGVNGGNGNTRFSQKFQDRLMIVRDRSANTASMELRSLTSEDTAVYYCARADDCSGVGCHPWFDPWGQGTLVTVSS VL: SVILTQPPSVSVSPGQTANITCSGDKLGDKYTSWYLQKPGQSPVLLIFQDTKRPSDIPERFSGSNSGNTATLTISGTQAVDEADYYCQAWDSDSGTATFGGGTKLTVL , what is it?
Found: 22000 M⁻¹ s⁻¹

Lookup: And then anti-MrkA clone 5 (IgG1) (antibody, V domains shown, also called St3_C5; IgG clone 5) VH: QVQLVQSGAEVKKPGASLKVSCKASGYTFTAYYMHWVRQAPGHGLEWMGWINPSSGGTNSAQKFQGRVTMTRDTSINTAYMELSRLTSDDTAVYYCARGTIGAAGNYWGQGTLVTVSS VL: QSVLTQPPSASGTPGQRVTISCSGSRPNIGGNTVNWYQQLPGAAPKLLIYSNSQRPSGVPDRFSGSKYGTSASLAISGLQSDDEADYYCAAWDDSLTGPVFGGGTKLTIL , what is it?
Found: 26000 M⁻¹ s⁻¹
